- Measured target: Gonadotropin-releasing hormone receptor (Homo sapiens, UniProt P30968)
- Sequence (P30968 whole entry): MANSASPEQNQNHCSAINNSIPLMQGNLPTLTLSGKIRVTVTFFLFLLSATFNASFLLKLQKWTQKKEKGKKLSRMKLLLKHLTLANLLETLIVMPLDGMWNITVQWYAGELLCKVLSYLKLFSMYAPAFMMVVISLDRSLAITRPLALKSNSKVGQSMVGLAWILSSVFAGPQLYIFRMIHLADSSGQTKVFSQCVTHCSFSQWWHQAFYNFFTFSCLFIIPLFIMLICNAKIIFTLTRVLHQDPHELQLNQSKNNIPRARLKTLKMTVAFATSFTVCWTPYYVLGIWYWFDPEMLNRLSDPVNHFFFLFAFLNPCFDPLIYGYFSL
- Experimental protocol: Inhibition of [125I]buserelin binding to human pituitary gonadotropin-releasing hormone receptor
IC50 for assorted compounds
Experimental endpoint: IC50 (nM)

Query smiles	Unit symbol	Reported measurement
Cc1cc(C)cc(-c2[nH]c3ccc(C(C)(C)C(=O)N4CC5CCC4CC5)cc3c2[C@H](C)CNCCc2ccc3[nH]c(=O)[nH]c3c2)c1	nM	0.6
Cc1cc(C)cc(-c2[nH]c3ccc(C(C)(C)C(=O)N4CC5CCC4CC5)cc3c2[C@H](C)CNCCc2ccc3nn[nH]c3c2)c1	nM	0.3
Cc1cc(C)cc(-c2[nH]c3ccc(C(C)(C)C(=O)N4C5CCC4CC5)cc3c2[C@H](C)CNCCCCc2cnc3nccnc3c2)c1	nM	0.4
Cc1cc(C)cc(-c2[nH]c3ccc(C(C)(C)C(=O)N4CC5CCC4CC5)cc3c2[C@H](C)CNCCc2ccc3nc[nH]c3c2)c1	nM	0.3

All values here come from ChEMBL document CHEMBL1135234.
